Assay: Single ascending dose study in pre- and post-menopausal women, pharmacokinetics
Format: in vivo, human
Conditions: female, human, in vivo, 0.03 mg, AUC (0-tlast) Mean
OBSERVATION TYPE: AUC(0-t) (ng·h/mL)
Give bare numbers, in ng·h/mL.

Entry N#Cc1ccc(C(F)(c2ccc(C#N)cc2)n2cncn2)cc1 [CGP47645] ; AUC(0-t) = 24.1

---

Experiment: Single ascending dose study in pre- and post-menopausal women, pharmacokinetics
Type: in vivo, human
Settings: female, human, in vivo, 0.01 mg, Cmax Mean
OBSERVATION TYPE: Cmax (ng/mL)
Give bare numbers, in ng/mL.

So, N#Cc1ccc(C(F)(c2ccc(C#N)cc2)n2cncn2)cc1 ? Its Cmax was 0.2
